experiment: in vivo; conditions: SCID, mouse, in vivo, ip, MTD
Value kind: MTD at 3 weeks

Task: Which MTD at 3 weeks value is on record for CCc1nc(N)nc(N)c1-c1ccc(N(C)Cc2ccccc2)c([N+](=O)[O-])c1 [Compound S] ?
Output: ≥ 50 mg/kg

====

Here's a batch of compounds along with measured GI50 for pancreatic ductal adenocarcinoma cell line Miapaca-2.

Worked cases, GI50 given:
Task: Form entry - test system: pancreatic ductal adenocarcinoma cell line Miapaca-2; read-out: GI50; compound: CN(Cc1ccoc1)Cc1nnc(SCCOc2ccccc2)n1C [Compound G]
Output: 9.7 µM

Task: Give GI50 (pancreatic ductal adenocarcinoma cell line Miapaca-2) of the following compound: O=c1[nH]cc(F)c(=O)[nH]1 [Compound 5-FU, 5-fluorouracil, reference compound]
Output: 8.1 µM

Task: Tell me reported GI50 for COc1ccc(Cc2c[nH]cc3c(=O)c(OC)ccc2-3)cc1O [Compound M] , tested with pancreatic ductal adenocarcinoma cell line Miapaca-2.
Output: 24 µM

Task: State its GI50 on pancreatic ductal adenocarcinoma cell line Miapaca-2: CCc1nc(N)nc(N)c1-c1ccc(N(C)Cc2ccccc2)c([N+](=O)[O-])c1 [Compound S]
Output: 0.48 µM

Task: Please state recorded GI50 (tested on pancreatic ductal adenocarcinoma cell line Miapaca-2) of Nc1nc2[nH]cc(CCc3ccc(C(=O)N[C@@H](CCC(=O)O)C(=O)O)cc3)c2c(=O)[nH]1 [Pemetrexed, pemetrexed, reference compound]
Output: > 200 µM

Others:
Task: Reported GI50 for pancreatic ductal adenocarcinoma cell line Miapaca-2, given O[C@@H](c1cc(C(F)(F)F)nc2c(C(F)(F)F)cccc12)C1CCCCN1 (stereo partly shown) [P] ?
Output: 7 µM

Task: Record lookup: for pancreatic ductal adenocarcinoma cell line Miapaca-2, what GI50 belongs to CCN(CC)C1=CC(=O)/C(=N/Nc2cc(Br)ccn2)C=C1 [U] ?
Output: 12 µM

====

Test system: pancreatic neuroendocrine cell line Bon1
Experiment: MTS cell viability assay, Bon-1
Type: cell-based
Settings: PNET, 72-hour incubation, MTS; unit inferred; read-out: GI50 Bon-1
Experimental: Antiproliferative effects of 27 novel TS inhibitors were tested by MTS assay (Promega) in human cancer cell lines representing several major tumor types known to overexpress TS including lung, cervical, pancreatic and hematopoietic tumors. Six compounds (S, U, P, M, G and J) reduced cell viability by more than 40% in both human cervical cancer HeLa (FIG. 6) and myelogenous leukemia K562 cell lines (FIG. 7). […]
Value kind: GI50 (µM)
Quick note: give the figure in µM, leave out the unit.

Example entries and their recorded answers appear below.
Task: Consider the compound shown here: O[C@@H](c1cc(C(F)(F)F)nc2c(C(F)(F)F)cccc12)C1CCCCN1 (stereo partly shown) What is its recorded GI50?
Output: 7.6

Task: # GI50 lookup, item O=c1[nH]cc(F)c(=O)[nH]1 [Compound 5-FU, 5-fluorouracil, reference compound]
Output: 7.6

Task: Which GI50 is reported for this compound? `COc1ccc(Cc2c[nH]cc3c(=O)c(OC)ccc2-3)cc1O`
Output: 26

More entries:
Task: Form field: reported GI50 of `CCN(CC)C1=CC(=O)/C(=N/Nc2cc(Br)ccn2)C=C1`
Output: 2.4

Task: Which GI50 is reported for this compound? `CN(Cc1ccoc1)Cc1nnc(SCCOc2ccccc2)n1C`
Output: 0.39

Task: Item under review: `CCc1nc(N)nc(N)c1-c1ccc(N(C)Cc2ccccc2)c([N+](=O)[O-])c1` . Reported GI50?
Output: 100
